These measurements were taken from patent US9732093B2.

# Test system: leukotriene pathway in human whole blood
# ASSAY_PROCEDURE: Human whole blood assay (LTB4 levels after A23187 stimulation)
# Format: cell-based
# SETTINGS: human whole blood diluted 1:1 in RPMI, A23187 stimulation; Table 6 (additional runs)
# Procedure: The ability of the compounds of the present invention to treat a FLAP-mediated disease and/or disorder, or associated symptoms or complications thereof, was determined using the following procedures. Binding assay data represent the average value obtained from two different assay plates, with samples run in duplicate on each plate. Human whole blood assay data represent a single replicate on an assay plate using whole blood from at least one healthy donor. […]
Structures can show the parent of a compound that is named as a salt.
ENDPOINT_LABEL: log10 IC50 (log10 of the value in µM)
Answers are given as log10 of IC50 in µM.

Find the measured log10 IC50: item Nc1cnc(-c2ccc(C3CCC3)c(OCc3cccc(C(F)(F)F)c3)c2F)cn1 , target or system leukotriene pathway in human whole blood.
-0.05

What reported log10 IC50 corresponds to Nc1cnc(-c2ccc(C3CCC3)c(Oc3ccc(N)nn3)c2F)cn1 on leukotriene pathway in human whole blood?
-1.02

What is its log10 IC50 for leukotriene pathway in human whole blood? Entry: Nc1cnc(-c2ccc(C3CC3)c(Oc3nccc(N)n3)c2F)cn1
-0.94

So what log10 IC50 did Nc1cnc(-c2ccc(C3CCC3)c(Oc3cc(O)ncn3)c2F)cn1 get with leukotriene pathway in human whole blood?
-0.91

Form field: log10 IC50 recorded for Nc1ncc(-c2ccc(C3CCCCC3)c(Oc3ncccn3)c2F)cn1 with leukotriene pathway in human whole blood (enter value)
-1.84

Quick check: log10 IC50 on leukotriene pathway in human whole blood, item Nc1cnc(-c2ccc(C3CCC3)c(OCCNc3cnccn3)c2F)cn1 [Example 295, trifluoroacetic acid salt] ?
-0.73

Record lookup: for leukotriene pathway in human whole blood, what log10 IC50 belongs to Nc1ccnc(Oc2c(C3CCCC3)ccc(-c3cnc(N)nc3)c2F)n1 ?
-1.43

Observed log10 IC50 on leukotriene pathway in human whole blood for Nc1cnc(-c2ccc(C3CCC3)c(OCc3ncccn3)c2F)cn1 , please.
0.21

====

Hi there, I'd appreciate the recorded pKi for every entry that follows.
# SYSTEM_UNDER_TEST: human FLAP (Homo sapiens (Human), UniProt P20292)
# Sequence (P20292 whole entry): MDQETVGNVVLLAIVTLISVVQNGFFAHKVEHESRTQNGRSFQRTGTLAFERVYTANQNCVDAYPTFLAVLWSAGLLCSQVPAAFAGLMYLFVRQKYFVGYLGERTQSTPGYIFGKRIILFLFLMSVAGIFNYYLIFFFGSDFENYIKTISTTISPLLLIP
# ASSAY_PROCEDURE: FLAP binding assay (HTRF format)
# SETTINGS: human FLAP wild type membranes, HTRF format; Table 6 (additional runs)
# Procedure: The ability of the compounds of the present invention to treat a FLAP-mediated disease and/or disorder, or associated symptoms or complications thereof, was determined using the following procedures. Binding assay data represent the average value obtained from two different assay plates, with samples run in duplicate on each plate. Human whole blood assay data represent a single replicate on an assay plate using whole blood from at least one healthy donor. Data are expressed as a HTRF ratio.
Scale for pKi: -log10 of concentration given in mol/L; no unit attached.

Entry Cc1cc(N)nc(Oc2c(C3CCC3)ccc(-c3cnc(N)cn3)c2F)n1 : reported pKi = ?
8.21

Give its pKi value. Item: N#Cc1cc(Oc2c(C3CCC3)ccc(-c3cnc(N)cn3)c2F)ccn1
7.95

Record request: pKi value, item Nc1cnc(-c2ccc(C3CCC3)c(OCc3cccc(F)c3)c2F)cn1
7.61

Could you tell me which pKi is on file for Nc1cnc(-c2ccc(C3CCC3)c(OCC(=O)O)c2F)cn1 ?
6.10

Can you look up the measured pKi of COc1cnc(Oc2c(C3CCC3)ccc(-c3cnc(N)cn3)c2F)nc1 for me?
7.35

pKi for CCc1ccc(-c2cnc(N)cn2)c(F)c1O ?
6.38

Tell me the measured pKi of Nc1cnc(-c2ccc(C3CCC3)c(OCc3ccc(-c4cnc(N)nc4)cc3)c2F)cn1 , please.
7.65

Any idea what its pKi is? The compound is Nc1cnc(-c2ccc(C3CCC3)c(OCc3ccccc3C(F)(F)F)c2F)cn1
6.93

Would you mind telling me what pKi value was observed for Nc1cnc(-c2ccc(C3CCC3)c(OCC3CCCNC3)c2F)cn1 (racemic) ?
5.71

Please report the recorded pKi for Nc1cnc(-c2ccc(C3CCC3)c(OCc3ccc(C(=O)O)o3)c2F)cn1 .
7.55

Reported pKi for COc1cc(Oc2c(C(C)(C)C)ccc(-c3cnc(N)cn3)c2F)ncn1 : what is it?
8.07

So what does the record say about pKi for CC(C)(C)c1ccc(-c2cnc(N)nc2)c(F)c1Oc1ncccn1 ?
7.29

Which pKi reading was recorded for the compound Nc1cnc(-c2ccc(C3CCC3)c(Oc3cc(C4CC4)ncn3)c2F)cn1 ?
8.26

I would be grateful if you could share the reported pKi for Nc1cnc(-c2ccc(C3CCC3)c(OCc3ccccc3C(=O)O)c2F)cn1 .
8.16

Fill blank: measured pKi of the compound COc1nc(N)cc(Oc2c(C3CCC3)ccc(-c3cnc(N)cn3)c2F)n1 is ____.
8.92

State the recorded pKi for this entry: Nc1cnc(-c2ccc(C3CCC3)c(OCc3cccnc3)c2F)cn1
7.57

Consider the compound shown here: Nc1cnc(-c2ccc(C3CCC3)c(OCc3ccncc3)c2F)cn1 What is its recorded pKi?
7.65
